For each record, write down the corresponding Percent Effect.
# Assay Target: Arginase-2, mitochondrial (Homo sapiens) (UniProt P78540)
# Sequence (P78540 whole entry): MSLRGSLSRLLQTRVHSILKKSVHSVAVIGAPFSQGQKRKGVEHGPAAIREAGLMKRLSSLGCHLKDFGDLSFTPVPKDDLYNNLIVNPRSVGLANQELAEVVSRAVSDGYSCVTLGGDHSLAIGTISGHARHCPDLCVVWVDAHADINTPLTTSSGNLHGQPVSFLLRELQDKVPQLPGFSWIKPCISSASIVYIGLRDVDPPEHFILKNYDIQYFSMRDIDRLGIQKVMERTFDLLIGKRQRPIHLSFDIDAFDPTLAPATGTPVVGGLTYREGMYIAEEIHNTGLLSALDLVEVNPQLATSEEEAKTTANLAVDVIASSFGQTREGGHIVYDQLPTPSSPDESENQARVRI
# Assay Comment: in vitro enzyme assay to detect the production of urea directly proportional to the activity of Arginase II
# Format: functional
# Set-up: scale not given: in the data most compounds retested in dose-response had high values
# Experimental Context: 33.3 µM
Express your answer in %, writing the number without its unit.

Query block: # lookup: Percent Effect of "C[C@H]1C(=O)NC[C@H]2CN(Cc3ccccc3)C[C@H]21"
Result block: -0.457

Query block: Find the recorded Percent Effect belonging to "c1cc(COC[C@@H]2CCC[C@@]23CNCCO3)ccn1" and report it.
Result block: -3.5

Query block: Dear colleague, I am looking for the recorded Percent Effect of the following compound: "O=C([C@H]1C[C@H]2OCC[C@H]2N(Cc2cccnc2)C1)N1CCCO1"
Result block: 20.1

Query block: What does the data say about its Percent Effect? Entry: "Cc1c(CC(=O)N2CCN(CC(F)(F)F)CC2)nnn1-c1ccccc1"
Result block: 2.76

Query block: Requested field: Percent Effect. Item: "Cc1cc(CN2C[C@@H]3CCCO[C@@H]3[C@H](Nc3ccccn3)C2)no1"
Result block: 4.22

Query block: Requested read-out: Percent Effect. Entry: "CCN(CC)C(=O)c1ccc(NC(=O)CNc2ccc(Br)cc2F)cc1"
Result block: -17.8

Query block: Quick one: Percent Effect of c1cnc(N2CCC3(COCCN(CC4CC4)C3)C2)nc1 (stereo not drawn) ?
Result block: 0

Query block: What value of measured Percent Effect is listed for "CC(C)c1nccc([C@H]2C[C@@H]3CCN(Cc4ccoc4)C[C@H]3O2)n1" ?
Result block: -6.48

Query block: Suppose we examine the compound "CCN(CC)C(=O)c1ccc(NC(=O)CNc2ccc(F)cc2Cl)cc1" ; what Percent Effect value has been reported?
Result block: 0

Query block: What measured Percent Effect goes with Cn1c(=O)n(C)c2cc(C3SCC(=O)Nc4ccsc43)ccc21 (stereo not drawn) ?
Result block: -11.8

Query block: Look at this compound and give its reported Percent Effect. "COCCN1C[C@H]2[C@@H](C1)N(C(=O)COc1ccccc1)CC[C@H]2OC"
Result block: -4.45

Query block: Which Percent Effect reading was recorded for the compound "O=C(NC[C@]12COC[C@H]1CN(Cc1cccnc1)C2)c1ccno1" ?
Result block: -0.233

Query block: Which value of Percent Effect has been reported for "NCC1(c2cccc(Br)c2)CCOCC1" in the records?
Result block: -22.5

Query block: Entry c1cncc(N2CCOCC3(CCCN(Cc4cccs4)C3)C2)c1 (stereo not drawn) : reported Percent Effect = ?
Result block: 2.23

Query block: Which Percent Effect value belongs to CC(C)c1nc(N2CCN3CCCC3C2)c2cnn(C)c2n1 (stereo not drawn) ?
Result block: -6.79

Query block: Percent Effect for "O[C@@]1(c2ccccn2)CC[C@H]2CN(Cc3cccc(Cl)c3Cl)C[C@H]21" ?
Result block: -1.62

Query block: May I ask what Percent Effect has been recorded for "Cc1cc(CN2CC[C@H]3C[C@H](c4nccs4)O[C@@H]3C2)no1" ?
Result block: 0.319

Query block: For the compound "CCc1cnc(N2CC3(CCN(Cc4ccsc4)C3)C2)nc1" , what Percent Effect is on record?
Result block: 0

Query block: Need Percent Effect, item "c1cncc(COC[C@H]2CC[C@H]3[C@H](CCN3Cc3cccs3)O2)c1"
Result block: 3.5

Query block: Reported Percent Effect for COc1ccc(C2SCC(=O)Nc3ccsc32)cc1 (stereo not drawn) : what is it?
Result block: 1.94

Query block: Suppose we examine the compound "COCc1cncc2c1CCN(Cc1ccccn1)C2" ; what Percent Effect value has been reported?
Result block: 4.58

Query block: Which value of Percent Effect has been reported for O=C1CSC(c2ccsc2)c2sccc2N1 (stereo not drawn) in the records?
Result block: -4.4

Query block: Reported Percent Effect, compound "c1ccc(CN2CC[C@H]3CO[C@H](CNc4ncccn4)[C@H]3C2)nc1" : ____
Result block: -54.3
